Catalogue of binders with associated Kd
- measured target: Sso7c4 wild-type (Sulfolobus solfataricus P2, UniProt A0A0E3K9N8 1-54)
- Sequence (A0A0E3K9N8 entry or part of it): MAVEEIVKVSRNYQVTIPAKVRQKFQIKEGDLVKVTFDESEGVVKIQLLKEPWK
- assay summary: fluorescence polarization; 20 mM Tris-Cl pH 7.5, no added salt, 25 C; FP with 100 nM FAM-DNA, 1 h at room temperature
- settings: protein: recombinant; chain copies: 2; label: 5'-FAM; blunt, self-complementary
measured endpoint: Kd (µM)

[[record]]
binder = "5'-FAM-20-bp DNA (dsDNA) DNA 1: CCAACACTGGCCAGTGTTGG DNA 2: CCAACACTGGCCAGTGTTGG"
measured_endpoint = "Kd"
endpoint_result = 2.73

[[record]]
binder = "5'-FAM-10-bp DNA (dsDNA) DNA 1: CCTACGTAGG DNA 2: CCTACGTAGG"
measured_endpoint = "Kd"
endpoint_result = 3.12

[[record]]
binder = "5'-FAM-8-bp DNA (dsDNA) DNA 1: CGCTAGCG DNA 2: CGCTAGCG"
measured_endpoint = "Kd"
endpoint_result = 14.2


Hello, the source for this data is paper PMC5222340, in case you need it.
